target-or-system: SpCas9 (Streptococcus pyogenes serotype M1, UniProt Q99ZW2)
Sequence (Q99ZW2 whole entry): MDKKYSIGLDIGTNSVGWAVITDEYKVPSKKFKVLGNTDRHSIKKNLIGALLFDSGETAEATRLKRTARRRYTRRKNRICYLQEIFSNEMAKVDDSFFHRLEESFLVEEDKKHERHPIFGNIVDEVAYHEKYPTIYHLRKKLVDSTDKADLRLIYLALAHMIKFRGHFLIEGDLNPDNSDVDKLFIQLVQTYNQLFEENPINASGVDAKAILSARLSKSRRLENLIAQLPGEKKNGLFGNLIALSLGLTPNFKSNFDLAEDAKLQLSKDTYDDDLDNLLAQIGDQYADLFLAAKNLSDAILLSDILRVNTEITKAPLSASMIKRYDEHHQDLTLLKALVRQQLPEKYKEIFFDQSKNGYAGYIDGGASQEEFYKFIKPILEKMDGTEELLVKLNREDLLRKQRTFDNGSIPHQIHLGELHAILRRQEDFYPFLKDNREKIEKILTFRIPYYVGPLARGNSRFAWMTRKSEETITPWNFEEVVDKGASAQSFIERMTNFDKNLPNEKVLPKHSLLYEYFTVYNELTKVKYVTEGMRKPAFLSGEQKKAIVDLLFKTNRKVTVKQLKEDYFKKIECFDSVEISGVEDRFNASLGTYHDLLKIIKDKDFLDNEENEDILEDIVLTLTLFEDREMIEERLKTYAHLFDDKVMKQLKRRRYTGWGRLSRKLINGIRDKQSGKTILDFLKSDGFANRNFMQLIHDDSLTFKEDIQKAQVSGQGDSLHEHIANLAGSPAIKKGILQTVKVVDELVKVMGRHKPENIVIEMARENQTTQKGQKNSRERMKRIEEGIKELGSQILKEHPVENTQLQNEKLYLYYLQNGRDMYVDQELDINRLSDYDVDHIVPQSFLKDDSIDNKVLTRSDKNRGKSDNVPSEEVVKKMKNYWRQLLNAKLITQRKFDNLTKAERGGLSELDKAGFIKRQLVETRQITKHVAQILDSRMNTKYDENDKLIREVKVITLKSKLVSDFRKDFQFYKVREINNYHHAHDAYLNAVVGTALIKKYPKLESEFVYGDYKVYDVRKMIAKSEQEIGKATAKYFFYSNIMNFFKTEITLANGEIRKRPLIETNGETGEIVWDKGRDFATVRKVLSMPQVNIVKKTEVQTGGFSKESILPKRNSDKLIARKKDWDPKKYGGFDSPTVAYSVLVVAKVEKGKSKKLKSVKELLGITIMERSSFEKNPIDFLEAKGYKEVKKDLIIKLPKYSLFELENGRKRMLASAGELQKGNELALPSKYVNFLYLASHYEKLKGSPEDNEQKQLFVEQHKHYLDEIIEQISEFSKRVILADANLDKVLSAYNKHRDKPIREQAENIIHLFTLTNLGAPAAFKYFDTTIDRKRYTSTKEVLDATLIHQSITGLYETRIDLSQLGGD
protocol-notes: eGFP-disruption assay in U2OS.eGFP.PEST cells
Type: cell-based, S. pyogenes
Design: host or cells: U2OS.eGFP.PEST
stated-conditions: screen of structural analogs of BRD7087; 15 μM compound, 24 h, U2OS.eGFP.PEST cells
One threshold, 60, splits the recorded Inhibition activity Rep 2 values: lower ones are 1, equal or higher ones are -1.

Take a look at these entries with their results.
molecule	target-or-system	class
O=C(CC1CC1)N1CC[C@@H]2[C@H]1c1cc(-c3ccc(F)cc3)ccc1N[C@@H]2CO [BRD-K03427362]	SpCas9 (Streptococcus pyogenes serotype M1, UniProt Q99ZW2)	1
COc1ccc(S(=O)(=O)N2CC[C@H]3[C@@H](CO)N(C)c4ccc(C#Cc5ccccc5OC)cc4[C@H]32)cc1 [BRD-K83448282]	SpCas9 (Streptococcus pyogenes serotype M1, UniProt Q99ZW2)	1
O=S(=O)(c1cccc(F)c1)N1CC[C@H]2[C@H](CO)Nc3ccc(C#Cc4ccccc4F)cc3[C@H]21 [BRD-K67297693]	SpCas9 (Streptococcus pyogenes serotype M1, UniProt Q99ZW2)	-1
CN1c2ccc(C#Cc3cccnc3)cc2[C@H]2[C@H](CCN2S(=O)(=O)c2ccccc2F)[C@@H]1CO [BRD-K58893765]	SpCas9 (Streptococcus pyogenes serotype M1, UniProt Q99ZW2)	1
O=C(c1ccccc1)N1CC[C@@H]2[C@H]1c1cc(C#CC3CCCCC3)ccc1N[C@@H]2CO [BRD-K92041481]	SpCas9 (Streptococcus pyogenes serotype M1, UniProt Q99ZW2)	-1
CN1c2ccc(-c3ccc(F)cc3)cc2[C@H]2[C@H](CCN2S(=O)(=O)c2cccc(F)c2)[C@@H]1CO [BRD-K98925777]	SpCas9 (Streptococcus pyogenes serotype M1, UniProt Q99ZW2)	1
CN1c2ccc(C#Cc3cccnc3)cc2[C@@H]2[C@@H](CCN2C(=O)c2cccc(F)c2)[C@H]1CO [BRD-K46446619]	SpCas9 (Streptococcus pyogenes serotype M1, UniProt Q99ZW2)	-1
CN1c2ccc(-c3ccccc3F)cc2[C@H]2[C@H](CCN2C(=O)NC2CCCCC2)[C@H]1CO [BRD-K35104316]	SpCas9 (Streptococcus pyogenes serotype M1, UniProt Q99ZW2)	1

Inhibition activity Rep 2 strictly < 60 for this molecule? CCCC#Cc1ccc2c(c1)[C@@H]1[C@@H](CCN1S(=O)(=O)c1ccccc1OC)[C@@H](CO)N2 [BRD-K43330291]
1

Inhibition activity Rep 2 strictly < 60 for this molecule? COc1ccc(S(=O)(=O)N2CC[C@@H]3[C@@H](CO)N(C)c4ccc(-c5ccc(F)cc5)cc4[C@@H]32)cc1 [BRD-K16827616]
1

Inhibition activity Rep 2 strictly < 60 for this molecule? O=C(C1CCCCC1)N1CC[C@@H]2[C@H](CO)Nc3ccc(C#Cc4ccc(F)cc4)cc3[C@@H]21 [BRD-K72901141]
1

Inhibition activity Rep 2 strictly < 60 for this molecule? O=C(C1CCCCC1)N1CC[C@@H]2[C@H]1c1cc(Br)ccc1N[C@@H]2CO [BRD-K20055065]
-1

Inhibition activity Rep 2 strictly < 60 for this molecule? O=C(C1CC1)N1CC[C@@H]2[C@H](CO)Nc3ccc(Br)cc3[C@@H]21 [BRD-K31090697]
1
